assay: log P by HPLC on reversed-phase column (C 18), EEC Directive 79/831 Annex V.A8; type: physicochemical; conditions: log P (HCOOH), acidic range pH 2.7, 0.1% aqueous formic acid and acetonitrile; reversed-phase column (C 18), 55° C.
result_type: LOGP_HCOOH
When you answer, write just the number.

CC(C)C(=O)Nc1cc(-c2ccc(OC(F)(F)F)cc2)cc(C(=O)NCc2cc(F)c(C#N)c(F)c2)n1    4.35

Request: Bench note: what LOGP_HCOOH did N#Cc1ccc(CNC(=O)c2cc(-c3c(Cl)cc(C(F)(F)C(F)(F)F)cc3Cl)cc(NC(=O)C3CC3)n2)cc1 [Example I-268] show?
Response: 4.05

Request: What value of measured LOGP_HCOOH is listed for CC(C)C(=O)Nc1cc(-c2ccc(OC(F)(F)F)cc2)cc(C(=O)NCc2c(F)cc(C#N)cc2F)n1 ?
Response: 4.31

Request: Could you tell me which LOGP_HCOOH is on file for N#Cc1ccc(CNC(=O)c2cc(-c3cc(F)c(C(F)(F)C(F)(F)F)c(Cl)c3)cc(NC(=O)C3CC3)n2)cc1 ?
Response: 4.67

###

Catalogue of efficacy (caterpillars killed) values
test system: Spodoptera frugiperda; assay: Spodoptera frugiperda spray test; assay type: in vivo; settings: application rate 500 g/ha, after 7 days, maize leaf discs
Please reply with the bare figure in % and do not write the unit itself.

O=C(Cc1ccc(Br)cc1)Nc1cc(-c2ccc(OC(F)(F)F)cc2)cc(C(=O)NC2CC2)n1 [Example I-125]    100
O=C(NCc1ccccn1)c1cc(-c2ccc(OC(F)(F)F)cc2)cc(NC(=O)C2CC2)n1 [Example I-116]    100
N#Cc1ccc(CNC(=O)c2cc(-c3ccc(C(F)(F)C(F)(F)F)c(F)c3)cc(NC(=O)C3CC3)n2)c(F)c1 [Example I-251]    100

Request: Requested field: efficacy (caterpillars killed). Item: N#CCCCCNC(=O)c1cc(-c2ccc(OC(F)(F)F)cc2)cc(NC(=O)C2CC2)n1 [Example I-157]
Response: 83

###

system: Phaedon cochleariae; experiment: Phaedon cochleariae spray test; type: in vivo; settings: application rate 500 g/ha, after 7 days, Chinese cabbage leaf discs
result_type: efficacy (beetle larvae killed) (%)
Report only the number, with the unit % understood.

N#Cc1ccc(CNC(=O)c2cc(-c3ccc(OC(F)(F)F)cc3)cc(NC(=O)C3CC3)n2)c(F)c1    100
O=C(NC1CC1)c1cc(-c2ccc(SC(F)(F)F)cc2)cc(NC(=O)C2CC2)n1    100
O=C(N[C@H]1CC[C@@H](C(F)(F)F)CC1)c1cc(-c2ccc(OC(F)(F)F)cc2)cc(NC(=O)C2CC2)n1    100

Request: Entry N#CCCCCNC(=O)c1cc(-c2ccc(OC(F)(F)F)cc2)cc(NC(=O)C2CC2)n1 has what efficacy (beetle larvae killed)?
Response: 100

Request: Reported efficacy (beetle larvae killed) for N#Cc1cc(F)c(CNC(=O)c2cc(-c3ccc(C(F)(F)C(F)(F)F)c(F)c3)cc(NC(=O)C3CC3)n2)cc1F : what is it?
Response: 100

Request: Which value of efficacy (beetle larvae killed) has been reported for N#Cc1ccc(CNC(=O)c2cc(-c3ccc(S(=O)(=O)C(F)(F)F)cc3)cc(NC(=O)C3CC3)n2)cn1 in the records?
Response: 100

Request: For the compound shown here, N#Cc1cc(F)c(CNC(=O)c2cc(-c3ccc(C(F)(F)C(F)(F)F)c(F)c3)cc(NC(=O)C3CC3)n2)c(F)c1 , give the reported efficacy (beetle larvae killed).
Response: 100

###

system: Phaedon cochleariae; test: Phaedon cochleariae spray test; assay type: in vivo; conditions: application rate 500 g/ha, after 7 days, Chinese cabbage leaf discs
result_type: efficacy (beetle larvae killed) (%)
Numbers only; they are read as %.

N#CC1CCC(CNC(=O)c2cc(-c3ccc(C(F)(F)C(F)(F)F)cc3)cc(NC(=O)C3CC3)n2)CC1 (stereo not drawn) [Example I-195]    100
N#Cc1ccc(CNC(=O)c2cc(-c3cc(F)c(C(F)(F)C(F)(F)F)c(F)c3F)cc(NC(=O)C3CC3)n2)cc1 [Example I-274]    100
CC(C#N)NC(=O)c1cc(-c2ccc(C(F)(F)C(F)(F)F)c(F)c2)cc(NC(=O)C2CC2)n1 (stereo not drawn) [Example I-245]    100
N#Cc1ccc(CNC(=O)c2cc(-c3ccc(I)cc3)cc(NC(=O)C3CC3)n2)cc1 [Example I-050]    83
N#Cc1ccc(CNC(=O)c2cc(-c3ccc(C(F)(F)F)cc3)cc(NC(=O)C3CC3)n2)cc1 [Example I-005]    100
CC(C)C(=O)Nc1cc(-c2ccc(C(F)(F)F)cc2)cc(C(=O)NCc2ccc(C#N)cc2)n1 [Example I-015]    100
O=C(NC(=O)c1cc(-c2ccc(C(F)(F)C(F)(F)F)c(F)c2)cc(NC(=O)C2CC2)n1)c1ccc([N+](=O)[O-])cc1 [Example I-263]    100
N#Cc1cc(F)c(CNC(=O)c2cc(-c3ccc(C(F)(F)F)cc3)cc(NC(=O)C3CC3)n2)cc1F [Example I-074]    100
CC(C)C(=O)Nc1cc(-c2ccc(C(F)(F)F)cc2)cc(C(=O)NCc2cc(F)c(C#N)cc2F)n1 [Example I-071]    83
CCONC(=O)c1cc(-c2ccc(OC(F)(F)F)cc2)cc(NC(=O)C2CC2)n1 [Example I-235]    100

Request: What is its efficacy (beetle larvae killed) for Phaedon cochleariae? Entry: O=C(NCc1ccc([N+](=O)[O-])cc1)c1cc(-c2ccc(C(F)(F)F)cc2)cc(NC(=O)C2CC2)n1 [Example I-084]
Response: 100

Request: Return efficacy (beetle larvae killed) measured with Phaedon cochleariae given this compound: CONC(=O)c1cc(-c2ccc(OC(F)(F)F)cc2)cc(NC(=O)C2CC2)n1 [Example I-234]
Response: 100

Request: Give Phaedon cochleariae efficacy (beetle larvae killed) for CC(C)(C)C(=O)Nc1cc(-c2ccc(OC(F)(F)F)cc2)cc(C(=O)NCc2ccc(C#N)cc2)n1 [Example I-206]
Response: 100

Request: Quick check: efficacy (beetle larvae killed) on Phaedon cochleariae, item Cn1nccc1-c1ccc(CNC(=O)c2cc(-c3ccc(OC(F)(F)F)cc3)cc(NC(=O)C3CC3)n2)cc1 [Example I-107] ?
Response: 100

Request: Can you look up efficacy (beetle larvae killed) on Phaedon cochleariae for CC(C)C(=O)Nc1cc(-c2ccc(OC(F)(F)F)cc2)cc(C(=O)NCc2c(F)cc(C#N)cc2F)n1 [Example I-070] ?
Response: 100

###

Test: log P by HPLC on reversed-phase column (C 18), EEC Directive 79/831 Annex V.A8
Type: physicochemical
Conditions: log P (HCOOH), acidic range pH 2.7, 0.1% aqueous formic acid and acetonitrile; reversed-phase column (C 18), 55° C.
Description: Temperature: 55° C. […] Called log P (HCOOH) in the table. […] Called log P (neutral) in the table.
Outcome label depends on LOGP_HCOOH relative to 4: at/above gives t, below gives f.

Use the examples below as a reference point.
O=C(NCc1ccc(C(F)(F)F)c(F)c1)c1cc(-c2ccc(C(F)(F)F)cc2)cc(NC(=O)C2CC2)n1    t
N#Cc1c(F)cc(CNC(=O)c2cc(-c3ccc(C(F)(F)C(F)(F)F)c(F)c3)cc(NC(=O)C3CC3)n2)cc1F    t
C[C@H](NC(=O)c1cc(-c2ccc(C(F)(F)F)cc2)cc(NC(=O)C2CC2)n1)c1ccc(C(F)(F)F)cc1    t
CONC(=O)c1cc(-c2ccc(OC(F)(F)F)cc2)cc(NC(=O)C2CC2)n1    f
CC(C)C(=O)Nc1cc(-c2ccc(C(F)(F)F)cc2)cc(C(=O)NCc2c(F)cc(C#N)cc2F)n1    t

Now take the following compound into account.
Request: State whether the measured LOGP_HCOOH reaches 4, counting equality as reaching it, for O=C(NCc1ccccn1)c1cc(-c2ccc(C(F)(F)F)cc2)cc(NC(=O)C2CC2)n1
Response: f

###

test system: Phaedon cochleariae; assay: Phaedon cochleariae spray test; format: in vivo; details: application rate 500 g/ha, after 7 days, Chinese cabbage leaf discs
result_type: efficacy (beetle larvae killed) (%)
Value expressed in %; do not type the unit.

Look over these answered cases.
O=C(NCc1ccc(-c2ncon2)cc1)c1cc(-c2ccc(SC(F)(F)F)cc2)cc(NC(=O)C2CC2)n1 [Example I-093]    100
COC1(NC(=O)c2cc(-c3ccc(OC(F)(F)F)cc3)cc(NC(=O)C3CC3)n2)CC1 [Example I-140]    100
N#Cc1ccc(CNC(=O)c2cc(-c3ccc(OC(F)(F)F)cc3)cc(NC(=O)C3(C#N)CC3)n2)cc1 [Example I-210]    83
CC1(C(=O)Nc2cc(-c3ccc(OC(F)(F)F)cc3)cc(C(=O)NCc3ccc(C#N)cc3)n2)CC1 [Example I-147]    100
O=C(NCc1ccc([N+](=O)[O-])cc1F)c1cc(-c2ccc(OC(F)(F)F)cc2)cc(NC(=O)C2CC2)n1 [Example I-102]    100
CC(NC(=O)c1cc(-c2ccc(C(F)(F)F)cc2)cc(NC(=O)C2CC2)n1)c1ccc(C(F)(F)F)cc1 (stereo not shown) [Example I-057]    83

Alright, here's another compound for you.
Request: Record request: efficacy (beetle larvae killed) value, item CC1(NC(=O)c2cc(-c3ccc(OC(F)(F)F)cc3)cc(NC(=O)C3CC3)n2)CC1 [Example I-128]
Response: 100

Hello, the source for this data is patent US20190053492A1, in case you need it.
